System: HIV-1 (NL4-3 strain)
Assay: Multiple round HIV-1 infection assay in MT4-GFP cells (Wild Type Cell Assay)
Assay type: cell-based
Conditions: Human immunodeficiency virus 1, NL43; 0 % NHS (serum-free); MT4-GFP cells infected with HIV-1 NL4-3; read-out: Wild Type Cell Assay IP
Protocol: HIV-1 replication was monitored using MT4-gag-GFP clone D3 (hereafter designate MT4-GFP), which are MT-4 cells modified to harbor a GFP reporter gene, the expression of which is dependent on the HIV-1 expressed proteins tat and rev. Productive infection of an MT4-GFP cell with HIV-1 results in GFP expression approximately 24 h post-infection. […]
What EC50 was measured for each of the following?
Hi! Could you send only the number? It should be in nM, unit omitted.

query: Reported EC50, molecule COCCN1CC2CC(C)c3c(C(=O)NCc4ccc(F)cc4F)c(=O)c(O)c(n32)C1=O (single isomer, unassigned) : ____
result: 3.9

query: Reported EC50, molecule CCO[C@H]1[C@H]2CCc3c(C(=O)NCc4ccc(F)cc4F)c(=O)c(O)c(n32)C(=O)N1CC (single isomer, unassigned) : ____
result: 2.1

query: Reported EC50, molecule COCCN1CC2CCc3c(C(=O)NCc4c(F)cc(F)cc4OC)c(=O)c(O)c(n32)C1=O (racemic) : ____
result: 4.4

query: Reported EC50, molecule CCN1C[C@H]2C[C@@H](OC)c3c(C(=O)NCc4ccc(F)cc4F)c(=O)c(O)c(n32)C1=O (single isomer, unassigned) : ____
result: 3.8

query: Reported EC50, molecule COCCN1CC2COCc3c(C(=O)NCc4ccc(F)cc4F)c(=O)c(O)c(n32)C1=O (racemic) : ____
result: 9.2

query: Reported EC50, molecule CCN1C[C@@H]2C[C@@H](OC)c3c(C(=O)NCc4ccc(F)c(Cl)c4F)c(=O)c(O)c(n32)C1=O (single isomer, unassigned) : ____
result: 2.9

====

What pEC50 was measured for each of the following?
Tested on: HIV-1 (NL4-3 strain)
Experiment: Multiple round HIV-1 infection assay in MT4-GFP cells (Wild Type Cell Assay)
Format: cell-based
Conditions: Human immunodeficiency virus 1, NL43; 10 % NHS (normal human serum); MT4-GFP cells infected with HIV-1 NL4-3; read-out: Wild Type Cell Assay IP
As a rule, pEC50 stands for the negative log10 of the concentration, concentration in M.

query: Reported pEC50, compound CC(C)N1CC2COCc3c(C(=O)NCc4ccc(F)cc4F)c(=O)c(O)c(n32)C1=O (racemic) [Compound 2] : ____
result: 7.48

query: Reported pEC50, compound CC(C)N1CC2COCc3c(C(=O)NCc4ccc(F)c(Cl)c4F)c(=O)c(O)c(n32)C1=O (racemic) [Compound 12] : ____
result: 7.30

query: Reported pEC50, compound Cc1c(F)ccc(CNC(=O)c2c3n4c(c(O)c2=O)C(=O)N(C(C)C)CC4COC3)c1F (racemic) [Compound 11] : ____
result: 6.94

query: Reported pEC50, compound CC(C)CN1CC2COCc3c(C(=O)NCc4ccc(F)cc4F)c(=O)c(O)c(n32)C1=O (racemic) [Compound 4] : ____
result: 7.68

query: Reported pEC50, compound CC(C)N1C[C@@H]2COCc3c(C(=O)NCc4ccc(F)c(F)c4F)c(=O)c(O)c(n32)C1=O (single isomer, unassigned) [Compound 9] : ____
result: 7.70

query: Reported pEC50, compound CC(C)N1CC2COCc3c(C(=O)NCc4ccc(F)c(Cl)c4)c(=O)c(O)c(n32)C1=O (racemic) [Compound 10] : ____
result: 7.00
